Would you kindly list cell viability for each of these compounds?
- System: UCD52 (cells of a triple-negative basal-like breast cancer xenograft)
- assay: cell viability (% of vehicle); higher = less cytotoxic;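 further: PDX cells carrying CMV promoter-driven luciferase, viability read as total photon flux per second by IVIS imaging following D-luciferin, vehicle control 0.1% DMSO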
- recorded-conditions: 10 µM; 72 h
Quick one: just the number, no unit, thanks!

Prompt: Name the recorded cell viability of the item CC(C)Cc1ccc(C(C)C(=O)O)cc1 (centres undefined) in your answer.
Response: 88.9

Prompt: // Input: CCCCc1oc2ccccc2c1C(=O)c1cc(I)c(OCCN(CC)CC)c(I)c1.Cl [Amiodarone HCl] . Output its cell viability only.
Response: 40.7

Prompt: Return the recorded cell viability value; entry: Clc1ccc(C(Cn2ccnc2)OCc2c(Cl)cccc2Cl)c(Cl)c1.O=[N+]([O-])O (centres undefined) [Isoconazole nitrate]
Response: 44.1

Prompt: Specify reported cell viability for the compound shown: `COC1=C(OC)C(=O)C(CCCCCCCCCCO)=C(C)C1=O`
Response: 78.2

Prompt: Consider the compound CN1CCCN=C1C=Cc1cccs1.O=C(O)c1cc2ccccc2c(Cc2c(O)c(C(=O)O)cc3ccccc23)c1O [Pyrantel Pamoate] and give its recorded cell viability.
Response: 99.5

Prompt: Input Cl.OC(c1cc(C(F)(F)F)nc2c(C(F)(F)F)cccc12)C1CCCCN1 (centres undefined) [Mefloquine hydrochloride] , output reported cell viability.
Response: 30.3

Prompt: Give cell viability for CCC(CO)NCCNC(CC)CO.Cl.Cl (centres undefined) [Ethambutol HCl]
Response: 86.7

Prompt: Provide one value: measured cell viability of C[N+](C)(C)CCOC(N)=O.[Cl-] [Carbamoylcholine chloride]
Response: 95.6

Prompt: Given the compound `CCCc1nn(C)c2c(=O)nc(-c3cc(S(=O)(=O)N4CCN(C)CC4)ccc3OCC)[nH]c12` , write its reported cell viability.
Response: 82.8

Prompt: Supply recorded cell viability for COc1cc(C(=O)NC2CCCNC2)cc(OC)c1OC (centres undefined) [Troxipide] here.
Response: 96.8

Prompt: Look up and report measured cell viability for this entry: `Nc1nnc(-c2cccc(Cl)c2Cl)c(N)n1`
Response: 112

Prompt: # return recorded cell viability for input CNCCc1ccccn1.Cl.Cl [Betahistine 2HCl]
Response: 133

Prompt: Please give the documented cell viability of O=C1C(CCC(O)c2ccc(F)cc2)C(c2ccc(O)cc2)N1c1ccc(F)cc1 (centres undefined)
Response: 81.4

Prompt: Read off the recorded cell viability for `CC(C)(C)Cn1c(N)nc2ccc(-c3[nH]c(C(C)(C)C)nc3-c3ccc(F)cc3)nc21.CS(=O)(=O)O.CS(=O)(=O)O`
Response: 36.7

Prompt: Give me measured cell viability, please, for this compound: `O=c1cc(O)c(Cl)c[nH]1`
Response: 87.8

Prompt: Item COCCCCC(=NOCCN)c1ccc(C(F)(F)F)cc1.O=C(O)C=CC(=O)O [Fluvoxamine maleate] : provide cell viability
Response: 84.9

Prompt: Tell me cell viability reported for `CCn1cc(C(=O)O)c(=O)c2cc(F)c(N3CCNCC3)cc21`
Response: 130

Prompt: Fill in cell viability for record C[N+](C)(CCOc1ccccc1)Cc1ccccc1.O=C(O)c1cc2ccccc2cc1[O-] [Bephenium Hydroxynaphthoate]
Response: 89.6

Prompt: Dear colleague, please send me the reported cell viability for CC(=O)Nc1ccccc1 [Acetanilide] when you can.
Response: 75.2

Prompt: Give the reported value of cell viability for this record: `CC(C)=CCCC(C)=CCCC(C)=CCSc1ccccc1C(=O)O`
Response: 95.5

Prompt: Report cell viability, nothing else, for this compound: CO[C@H]1C[C@@H]2CC[C@@H](C)[C@@](O)(O2)C(=O)C(=O)N2CCCC[C@H]2C(=O)O[C@H]([C@@H](C)C[C@@H]2CC[C@@H](OCCO)[C@H](OC)C2)CC(=O)[C@H](C)/C=C(\C)[C@@H](O)[C@@H](OC)C(=O)[C@H](C)C[C@H](C)/C=C/C=C/C=C/1C [Everolimus (RAD001)]
Response: 55.2

Prompt: Please give measured cell viability of the following entry: Cc1cn(C2C=CC(CO)O2)c(=O)[nH]c1=O (centres undefined)
Response: 104

Prompt: Return cell viability for the following compound: `O=c1cc[nH]c(=S)[nH]1`
Response: 91.8

Prompt: Output measured cell viability for this item: CN1CCN2c3ccccc3Cc3ccccc3C2C1.Cl (centres undefined) [Mianserin HCl]
Response: 74.3

====

- Test system: HCI03 (cells of an ER-positive luminal breast cancer xenograft)
- assay: cell viability (% of vehicle); higher = less cytotoxic
- recorded-conditions: 10 µM; 72 h
Cut-off 100 on cell viability: below means condition met, at or above means condition not met.

Prompt: Does this compound meet the criterion cell viability < 100? `CN1CCC(COc2cnc(-c3cccc(Cn4nc(-c5cccc(C#N)c5)ccc4=O)c3)nc2)CC1`
Response: condition met

Prompt: A record lists CCCCCCCCOc1ccccc1C(=O)Nc1ccc(C(=O)OCC[N+](C)(CC)CC)cc1.[Br-] [Otilonium Bromide] . Is its cell viability below 100?
Response: condition not met

Prompt: cell viability strictly < 100 for this compound? O=C1CN(/N=C/c2ccc(-c3ccc([N+](=O)[O-])cc3)o2)C([O-])=N1.[Na+] [Dantrolene, sodium salt]
Response: condition not met

Prompt: Quick check: cell viability of CCOC(=O)C1=C(C)NC(C)=C(C(=O)OC)C1c1cccc([N+](=O)[O-])c1 (centres undefined) [Nitrendipine] under 100?
Response: condition not met

Prompt: Confirm or reject: cell viability of COc1ccccc1Oc1c(NS(=O)(=O)c2ccc(C(C)(C)C)cc2)nc(-c2ncccn2)nc1OCCO.O [Bosentan Hydrate] lies strictly below 100
Response: condition not met

Prompt: Please determine if CN(Cc1cc(Br)cc(Br)c1N)C1CCCCC1.Cl [Bromhexine HCl] is below 100 in terms of cell viability.
Response: condition met

Prompt: Consider the compound Cc1ccc(-c2cc(C(F)(F)F)nn2-c2ccc(S(N)(=O)=O)cc2)cc1 [Celecoxib] . Is its cell viability strictly less than 100?
Response: condition not met

Prompt: Would you kindly verify if cell viability of CO[C@H]1/C=C/O[C@@]2(C)Oc3c(C)c(O)c4c(c3C2=O)C2=NC3(CCN(CC(C)C)CC3)NC2=C(NC(=O)/C(C)=C\C=C\[C@H](C)[C@H](O)[C@@H](C)[C@@H](O)[C@@H](C)[C@H](OC(C)=O)[C@@H]1C)C4=O [Rifabutin] is strictly less than 100?
Response: condition not met

Prompt: Hello, I'm reviewing records and need to know if cell viability of CCOc1cc(N)c(Cl)cc1C(=O)NCC1CN(Cc2ccc(F)cc2)CCO1.O=C(O)CC(O)(CC(=O)O)C(=O)O (centres undefined) [Mosapride Citrate] is below 100. Could you check?
Response: condition not met

Prompt: Hello, I'm reviewing records and need to know if cell viability of Cc1c(Cl)cccc1Nc1ccccc1C(=O)O [Tolfenamic Acid] is below 100. Could you check?
Response: condition not met

Prompt: is_below(cell viability, 100) for O=C(O)c1cc(=O)c2ccccc2o1 [Chromocarb] ?
Response: condition not met

Prompt: Say whether its cell viability is strictly beneath 100. Entry: CC(CCC(=O)O)C1CCC2C3C(O)CC4CC(O)CCC4(C)C3CC(O)C12C (centres undefined) [Cholic acid]
Response: condition not met

====

Record form. Attribute: cell viability. Fill in for each entry.
- Tested on: WHIM30 (cells of a triple-negative basal-like breast cancer xenograft)
- assay: cell viability (% of vehicle); higher = less cytotoxic
- recorded-conditions: 10 µM; 72 h
Answer as a number with no unit attached.

Prompt: Kindly indicate its recorded cell viability. Item: `C/C=C/C1=C(C(=O)O)N2C(=O)[C@@H](NC(=O)[C@H](N)c3ccc(O)cc3)[C@@H]2SC1`
Response: 115

Prompt: Give the reported cell viability for this molecule. C=C1c2cccc(O)c2C(O)=C2C(=O)C3(O)C(O)=C(C(N)=O)C(=O)C(N(C)C)C3C(O)C12.Cl (configuration not stated) [Methacycline HCl]
Response: 121

Prompt: Give cell viability for `CCOC(=O)[C@H](CCc1ccccc1)N[C@@H](C)C(=O)N1[C@H](C(=O)O)C[C@H]2CCCC[C@@H]21`
Response: 174

Prompt: Look up and state reported cell viability for CC1=C(C(=O)O)N2C(=O)C(NC(=O)C(N)c3ccccc3)C2SC1 (configuration not stated)
Response: 111

Prompt: Give the value of cell viability reported for the following: `Nc1nc(=O)c2ncn(COCCO)c2[nH]1`
Response: 108

Prompt: Provide one value: measured cell viability of `Cc1cc2c(s1)=Nc1ccccc1NC=2N1CCN(C)CC1`
Response: 107

Prompt: Give the reported cell viability for this molecule. NS(=O)(=O)c1cc(C(=O)O)c(NCc2ccco2)cc1Cl [Furosemide]
Response: 78.9

====

- Test system: HCI09 (cells of a triple-negative luminal androgen receptor type breast cancer xenograft)
- assay: cell viability (% of vehicle); higher = less cytotoxic
- recorded-conditions: 10 µM; 72 h
Counter-ions that a name gives are not always drawn.
Please respond with reported cell viability for every item in the list.

Prompt: Output cell viability of C[N+](C)(C)CC(O)CC(=O)[O-] [L-Carnitine inner salt]
Response: 99.8

Prompt: Complete the entry with cell viability for COc1ccc(CC2c3cc(OC)c(OC)cc3CC[N+]2(C)CCC(=O)OCCCCCOC(=O)CC[N+]2(C)CCc3cc(OC)c(OC)cc3C2Cc2ccc(OC)c(OC)c2)cc1OC.O=S(=O)([O-])c1ccccc1.O=S(=O)([O-])c1ccccc1 (centres undefined) [Cisatracurium Besylate]
Response: 102

Prompt: Read off the recorded cell viability for `N#Cc1ccc(C(c2ccc(C#N)cc2)n2cncn2)cc1`
Response: 98.4

Prompt: Check the records and state cell viability for `CCn1cc(C(=O)O)c(=O)c2cc(F)c(N3CCNCC3)nc21`
Response: 102
